test system: hepatocytes; assay: Hepatocyte stability assay (human); assay type: in vitro ADME; settings: 10 μM compound, 60 min
Listed next: entries and their corresponding Clint.

Answered examples (5):
lineNotation: C=C(CC(=O)OC1(c2ccc(C(F)(F)F)nn2)CCC1)C(=O)O
Clint: <3 μL min^−1 10^−6 cells

lineNotation: C=C(CC(=O)OC1(c2ccc(Br)cc2)COC1)C(=O)O
Clint: <3 μL min^−1 10^−6 cells

lineNotation: C=C(CC(=O)OC1(c2ccc(Cl)cc2)CCC1)C(=O)O
Clint: 11 μL min^−1 10^−6 cells

lineNotation: C=C(CC(=O)OC1(c2ccc(C(F)(F)F)cc2)CS(=O)(=O)C1)C(=O)O
Clint: 91 μL min^−1 10^−6 cells

lineNotation: C=C(CC(=O)OC1(c2ccc(Cl)cn2)CCC1)C(=O)O
Clint: <3 μL min^−1 10^−6 cells

Query string: Endpoint output: Clint of C=C(CC(=O)OC1(c2ccc(C(F)(F)F)cc2)CC2(CCC2)C1)C(=O)O . Value?
Result string: 14 μL min^−1 10^−6 cells

Query string: Endpoint output: Clint of C=C(CC(=O)OC1(c2ccc(C#CC(F)(F)F)cc2)CCC1)C(=O)O . Value?
Result string: 12 μL min^−1 10^−6 cells

Query string: Endpoint output: Clint of C=C(C(=O)O)C(C)(C)C(=O)OC1(c2ccc(C(F)(F)F)cn2)CCC1 . Value?
Result string: 11 μL min^−1 10^−6 cells

Query string: Endpoint output: Clint of C=C(CC(=O)OC1(c2ccc(C(F)(F)F)cc2)CCC1)C(=O)O . Value?
Result string: 11 μL min^−1 10^−6 cells

---

tested on: hepatocytes; assay: Hepatocyte stability assay (human); assay type: in vitro ADME; details: 10 μM compound, 60 min
Listed next: entries and their corresponding Clint.

Answered examples (4):
lineNotation: C=C(CC(=O)OC1(c2ncc(C(F)(F)F)cn2)CCC1)C(=O)O
result: <3 μL min^−1 10^−6 cells
//
lineNotation: C=C(CC(=O)OC1(c2ccc(C(F)(F)F)cc2)COC1)C(=O)O
result: <3 μL min^−1 10^−6 cells
//
lineNotation: C=C(CC(=O)OC1(c2ccc(C(F)(F)F)cc2)CC1)C(=O)O
result: 6 μL min^−1 10^−6 cells
//
lineNotation: C=C(CC(=O)O[C@]1(c2ccc(C(F)(F)F)cc2)C[C@H](C#N)C1)C(=O)O
result: <3 μL min^−1 10^−6 cells

Now turn to the next molecule.
Query string: Endpoint output: Clint of C=C(CC(=O)OC1(c2ccc(C(F)(F)F)nc2)CCC1)C(=O)O . Value?
Result string: <3 μL min^−1 10^−6 cells

---

tested on: hepatocytes; test: Hepatocyte stability assay (mouse); format: in vitro ADME; settings: 10 μM compound, 60 min
Listed next: entries and their corresponding Clint.
Numeric answer only, unit μL min^−1 10^−6 cells assumed.

Answered examples (5):
compound: C=C(CC(=O)OC1(c2ccc(Br)cc2)CCC1)C(=O)O
outcomeMeasure: Clint
measuredNumber: 25

compound: C=C(CC(=O)OCCCCCCCC)C(=O)O [4-octyl itaconate, reference compound]
outcomeMeasure: Clint
measuredNumber: 351

compound: C=C(CC(=O)OC1(c2ccc(Br)cn2)CCC1)C(=O)O
outcomeMeasure: Clint
measuredNumber: 4

compound: C=C(CC(=O)OC(C)(C)c1ccc(C(F)(F)F)cc1)C(=O)O
outcomeMeasure: Clint
measuredNumber: 35

compound: C=C(CC(=O)OC1(c2ccc(C#N)cc2)CCC1)C(=O)O
outcomeMeasure: Clint
measuredNumber: 9

Query string: API: value(readout=Clint, system=hepatocytes) for record C=C(CC(=O)OC1(c2ccc(C(F)(F)F)cc2)CC1)C(=O)O
Result string: 24

Query string: API: value(readout=Clint, system=hepatocytes) for record C=C(CC(=O)OC1(c2ccc(Cl)cc2)CCC1)C(=O)O
Result string: 26

Query string: API: value(readout=Clint, system=hepatocytes) for record C=C(CC(=O)OC1(c2ccc(C(F)(F)F)c(F)c2)CCC1)C(=O)O
Result string: 9

Query string: API: value(readout=Clint, system=hepatocytes) for record C=C(CC(=O)OC1(c2ccc(C(F)(F)C(F)(F)F)cc2)CCC1)C(=O)O
Result string: 38

Where do these numbers come from? They come from patent US20230399287A1.
